- system under test: NRAS Q61R (Homo sapiens, UniProt P01111+P62937, Q61R)
- Sequence (P01111 whole entry Q61R): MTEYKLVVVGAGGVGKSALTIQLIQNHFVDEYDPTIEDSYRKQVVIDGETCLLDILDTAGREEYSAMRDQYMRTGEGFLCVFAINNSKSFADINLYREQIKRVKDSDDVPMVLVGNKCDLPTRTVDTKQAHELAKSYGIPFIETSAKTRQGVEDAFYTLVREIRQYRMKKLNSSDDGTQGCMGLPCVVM
- Sequence (P62937 whole entry): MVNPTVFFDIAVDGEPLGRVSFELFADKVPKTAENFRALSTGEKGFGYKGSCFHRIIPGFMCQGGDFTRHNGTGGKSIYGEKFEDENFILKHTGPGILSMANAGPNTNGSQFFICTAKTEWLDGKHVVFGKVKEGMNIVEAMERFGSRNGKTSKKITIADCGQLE
- protocol text: Disruption of BRAF RBD interaction with Ras (FRET / MOA assay, with Cyclophilin A)
- Assay type: biochemical
- assay context: NRAS Q61R; read-out: NRAS Q61R FRET data IC50
readout: IC50

# compound, IC50
records = [
    ("CCn1c(-c2cccnc2[C@H](C)OC)c2c3cc(ccc31)-c1cc(O)cc(c1)C[C@H](NC(=O)[C@H](C(C)C)N(C)C(=O)[C@@H]1CCN[C@@H]1c1ccccc1)C(=O)N1CCC[C@H](N1)C(=O)OCC(C)(C)C2 (atropisomer, axis not shown) [Example A605]", "100 to 1000 nM"),
]

Shift focus to the following entry.
*Q* Quick one: IC50 for C=CC(=O)N1CC[C@H](C(=O)N(C)[C@H](C(=O)N[C@H]2Cc3cc(O)cc(c3)-c3ccc4c(c3)c(c(-c3cnccc3[C@H](C)OC)n4CC)CC(C)(C)COC(=O)[C@@H]3CCCN(N3)C2=O)C(C)C)C1 [Example A076] ?
*A* 100 to 1000 nM
